Where do the numbers come from? From the RNAGym collection of RNA variant scans (doi:10.7554/elife.80360).

B1: CPEB3 Ribozyme (parent)
chain: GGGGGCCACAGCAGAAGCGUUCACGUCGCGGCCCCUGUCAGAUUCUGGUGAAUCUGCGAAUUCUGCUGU

Variants of: B1
Test: self-cleavage, relative activity (ratio to wild type); higher = more cleavage; co-transcriptional
Note to self: class = bucket of self-cleavage, per small value: < 0.3; mid value: ≥ 0.3 and < 0.8; large value: ≥ 0.8

Bin? C29U G47U
mid value

Bin? C12U C66G
mid value

Bin? U20A A23U
small value

Bin? G3A U20C
small value

Bin? U49G G50C
large value

Bin? U46G G58A
large value

Bin? G3U U20C
small value

Bin? U55G U61A
mid value

Bin? A16U A51C
mid value

Bin? G47C U69A
large value

Bin? C33A C57U
mid value

Bin? C7G U46G
mid value

Bin? G3A C18G
small value

Bin? U21A U62C
large value

Bin? U46C G56A
large value

Bin? G28C G56C
small value

Bin? G48C A51U
large value

Bin? A16C C24U
small value

Bin? C39G G50U
large value

Bin? G3C G65A
small value

Bin? G19C G48U
small value

Bin? G17U C54U
mid value

Bin? G50U C66G
large value

Bin? C27U C35G
small value

Bin? C7U A42G
large value

Bin? G11A C12U
mid value

Bin? C6U G56A
large value

Bin? G2U G48C
small value

Bin? A42U G48U
large value

Bin? C12U C39A
mid value

Bin? G30A A42C
mid value

Bin? C7G U49A
mid value

Bin? U64A G65C
mid value

Bin? G41A U43G
small value

Bin? G4C U55G
small value

Bin? G14U G28A
small value

Bin? U20A U62C
small value

Bin? G1C G2C
mid value

Bin? G56U U67C
large value

Bin? C9U G37C
small value

Bin? G47U C63G
large value

Bin? C18U U67G
large value

Bin? U53A C66A
mid value

Bin? C6U A10G
large value
